Below is a list of entries, each paired with its recorded TGI value.
Test system: SR leukemia
Experiment: NCI tumour cell line growth inhibition, 48 h
Readout Label: TGI (µM)

COc1ccc(C2C3CCc4ccccc4C3=NN2S(=O)(=O)c2ccc(Cl)cc2)cc1 (configuration not stated)    25.4
CCOP(=O)(OCC)/C(C#N)=C/c1ccc(-c2ccc(F)cc2F)o1    33.2
FC(F)(F)C(C1=NC(C(F)(F)F)(C(F)(F)F)N=C(N2CCOCC2)O1)C(F)(F)F    61.2
O=C1OC(CC(=O)c2ccc(Cl)cc2Cl)C(Cl)=C1Cl (configuration not stated)    70.4
COC(C(=O)C(O)C(C)O)C1Cc2cc3cc(OC4CC(OC(C)=O)C(OC5CC(O)C(OC)C(C)O5)C(C)O4)cc(O)c3c(O)c2C(=O)C1OC1CC(OC2CC(OC3CC(C)(O)C(OC(=O)C(C)C)C(C)O3)C(O)C(C)O2)C(O)C(C)O1 (configuration not stated)    0.385
CS/C(=N\C(=S)Nc1ccccc1)Nc1ccccc1    64.1
C=C[C@H]1CC[C@H]2[C@@H]3CC=C4C[C@@H](OC5OCC(O)C(O)C5O)CC[C@]4(C)[C@H]3CC[C@]12C (some centres not stated)    33.7
O=C(c1ccccc1)[C@H]1Nc2ccc(Cl)cc2[C@H]2OCCC[C@@H]12    79.2
C=C(C)C(=O)OC1CC2=CC(CC3(C)OC3C3OC(=O)C(=C)C13)OC2=O (configuration not stated)    15.7
CN(C)CCNC(=O)c1ccc(C(=O)NCCN(C)C)c2nc3ccccc3cc12    2.49
O=C1C=C[C@@]23C[C@@H](Nc4c(O)c5c6c(c42)=NCCC=6C=N5)SC3=C1    6.14
Cn1ccnc1C(=O)/C=C/c1ccc(CC(=O)Nc2ccc(S(F)(F)(F)(F)F)cc2)cc1    1.86
CC(C)(O)C1CCC(Nc2ccc3ncc(-c4cccc(C(F)(F)F)c4)n3n2)CC1 (configuration not stated)    11.1

* * *

Test system: SW-620 colon
Experiment: NCI tumour cell line growth inhibition, 48 h; in the data active means GI50 below about 0.43 µM; inactive means the rest
Classes used: active, inactive

O=C(CCCCCCSc1nc(-c2ccccc2)cc(-c2ccccc2)n1)NO    inactive
C[C@H]1[C@H](C)CC[C@]2(C(=O)N3CCN(C)CC3)CC[C@]3(C)C(=CC[C@@H]4[C@@]5(C)C/C(=C/c6cccnc6)C(=O)C(C)(C)[C@@H]5CC[C@]43C)[C@H]12    inactive
CN(c1ccc(NC(=O)Nc2ccc(OC(F)(F)F)cc2)cc1)c1ccnc(Nc2cccc(S(N)(=O)=O)c2)n1    inactive
COc1ccc(-c2nnc(SCC(=O)Nc3ccc(/C(C)=N\O)cc3)n2-c2ccccc2)cc1OC    inactive
CS(=O)(=O)c1ccc(-c2cnc(N)c(C(=O)Nc3ccccc3)n2)cc1    inactive
N#Cc1c(N)nc(N2CCOCC2)c(C#N)c1-c1ccc(Cl)cc1    inactive
C=CC1=C[C@@H]2[C@@H]3O[C@]4(CC[C@H](O4)[C@@H](C)C[C@@H](O)C3=O)C[C@H](O)C3=NCC[C@@]32CC1    active
C/C([O-])=C1\Cc2ccccc2C1=O.C/C([O-])=C1\Cc2ccccc2C1=O.CC[O-].CC[O-].[Ti+4]    inactive
C=C(C)[C@@H]1CC[C@]2(C(=O)NCCNCCNCCN)CC[C@]3(C)[C@H](CC[C@@H]4[C@@]5(C)CC[C@H](O)C(C)(C)[C@@H]5CC[C@]43C)[C@@H]12    inactive
C=CCNCCCN1C(=O)c2ccc3c4c(ccc(c24)C1=O)C(=O)N(CCCNCC=C)C3=O    active
CC(C)[C@@]12C[C@@H](OC(=O)COC(=O)/C=C/c3ccccc3)[C@@](C)(O1)[C@@H]1CC[C@@H](C)[C@H]1[C@@H]2OC(=O)/C=C/c1ccccc1    inactive
O=C1/C(=C/c2ccc([N+](=O)[O-])o2)Oc2ccc(Br)cc21    inactive
CCN(CCNc1ccc(C)c2sc3cc(Cl)ccc3c(=O)c12)CC(C)O (stereo not given)    inactive
COc1cc2c3c(n(CCCNCC(OC)OC)c(=O)c2cc1OC)-c1cc2c(cc1C3=O)OCO2    inactive
Cc1ccc(/C=C2/SC(Nc3nc(-c4nc(NC5=NC(=O)/C(=C\c6ccc(C)cc6)S5)sc4C)c(C)s3)=NC2=O)cc1    inactive
